Biological target: T1, SARS-CoV2 Spike ecto foldon Trimer expressed with a C-terminal myc-myc-hexahistidine (SARS-CoV-2, UniProt P0DTC2 14-1213)
T1 construct: extracellular domain
Test: SPR Biacore, mAb captured by anti-hFc, 37C
Each record here notes measured kon.
Report only the number, with the unit M⁻¹ s⁻¹ understood.

The cases that follow already have their kon on record.
mAb14294 (antibody, V domains shown) VH: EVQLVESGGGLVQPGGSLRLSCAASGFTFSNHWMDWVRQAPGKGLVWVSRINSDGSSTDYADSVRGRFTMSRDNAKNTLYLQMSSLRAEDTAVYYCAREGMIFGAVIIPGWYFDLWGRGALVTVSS VL: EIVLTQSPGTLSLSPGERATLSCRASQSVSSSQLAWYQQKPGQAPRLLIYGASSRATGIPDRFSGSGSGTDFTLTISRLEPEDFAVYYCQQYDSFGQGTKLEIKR; 694000
mAb14235 (antibody, V domains shown) VH: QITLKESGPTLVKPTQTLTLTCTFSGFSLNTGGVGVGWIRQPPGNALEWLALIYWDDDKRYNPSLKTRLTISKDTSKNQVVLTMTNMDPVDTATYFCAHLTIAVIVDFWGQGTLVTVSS VL: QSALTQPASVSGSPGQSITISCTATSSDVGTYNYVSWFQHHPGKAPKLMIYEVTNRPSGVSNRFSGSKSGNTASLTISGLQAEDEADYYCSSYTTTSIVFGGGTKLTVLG; 735000

# ---- query binder ----
Prompt: Give its kon value. Item: mAb14247 (antibody, V domains shown) VH: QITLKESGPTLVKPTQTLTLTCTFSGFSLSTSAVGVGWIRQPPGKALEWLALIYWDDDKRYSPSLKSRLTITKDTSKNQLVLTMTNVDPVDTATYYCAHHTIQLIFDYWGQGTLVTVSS VL: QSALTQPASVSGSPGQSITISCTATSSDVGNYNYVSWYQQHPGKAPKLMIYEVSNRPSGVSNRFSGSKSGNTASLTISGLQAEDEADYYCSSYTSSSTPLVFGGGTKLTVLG
Completion: 674000
